- experiment summary: activity coefficient (dimensionless); of the first substance listed, at infinite dilution; xn = mol fraction of the nth substance listed
- experimental setup: 378.15 K; 101 kPa; Liquid; Chromatography; x1 = 0
property measured: activity coefficient
Answers are plain numbers.

[[record]]
compound = "C=CCCCCCCCC [1-decene] + CCCCn1cc[n+](C)c1.[Cl-]"
property_measured = "activity coefficient"
assay_result = 285


Give measured activity coefficient for every item shown.
1. CCOC(C)=O [ethyl acetate] + CCCCn1cc[n+](C)c1.[Cl-]
2. C=COC(C)=O [vinyl acetate] + CCCCn1cc[n+](C)c1.CS(=O)(=O)[O-]
3. CCC(=O)CC [pentan-3-one] + CCCCn1cc[n+](C)c1.CS(=O)(=O)[O-]
4. CCCCCCCC [octane] + CCCCn1cc[n+](C)c1.CS(=O)(=O)[O-]
5. CCCC(C)=O [pentan-2-one] + CCCCn1cc[n+](C)c1.COP(=O)([O-])OC
6. CCC[N+](=O)[O-] [1-nitropropane] + CCCCn1cc[n+](C)c1.COP(=O)([O-])OC
7. c1ccsc1 [thiophene] + CCCCn1cc[n+](C)c1.COP(=O)([O-])OC

*A*
9.1
3.76
4.88
160
3.78
1.62
1.43

*Q* Recorded activity coefficient for CC(C)=O [acetone] + CCCCn1cc[n+](C)c1.[Cl-] , please?
*A* 3.17

The reported numbers originate from the NIST ThermoML archive (doi:10.1016/j.jct.2015.07.042).
